Origin of measurements: patent US20150133367A1

Molecular target: Cathepsin S (UniProt P25774 115-331)
Sequence (P25774 115-331 limits assumed): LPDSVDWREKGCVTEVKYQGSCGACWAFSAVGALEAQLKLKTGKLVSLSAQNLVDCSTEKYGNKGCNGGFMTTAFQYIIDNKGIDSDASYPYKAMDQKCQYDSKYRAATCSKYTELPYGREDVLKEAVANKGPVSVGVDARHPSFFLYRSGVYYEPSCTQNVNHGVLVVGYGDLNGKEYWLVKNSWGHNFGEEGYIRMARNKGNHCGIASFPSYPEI
Test: fluorescence-based enzyme inhibition assay
Positions of bridges follow the written chain, without caps; N, C: chain ends. No end group written: not given here. alpha,alpha'‑meta‑xylylene = alpha,alpha'-meta-xylylene linker (from a,a'-dibromo-meta-xylene) bridging two cysteines via bis-thioether
MEASURED QUANTITY: Ki (µM)

Example results:
binder="IPPAYCELLC (linker 6-10 via alpha,alpha'‑meta‑xylylene) [IPPAYCELLC (SEQ ID NO:78)]" assay_value=20.7
binder="IPPKYCEALC (linker 6-10 via alpha,alpha'‑meta‑xylylene) [IPPKYCEALC (SEQ ID NO:86)]" assay_value=13.9
binder="IPPKYCELLC (linker 6-10 via alpha,alpha'‑meta‑xylylene) [IPPKYCELLC (SEQ ID NO:65)]" assay_value=50.2

P = EVTIPPKYCELLC (linker 9-13 via alpha,alpha'‑meta‑xylylene) [EVTIPPKYCELLC (SEQ ID NO:69)]
Q = IPPKACELLC (linker 6-10 via alpha,alpha'‑meta‑xylylene) [IPPKACELLC (SEQ ID NO:81)]
I need your help: which of the pair P , Q has higher Ki? Please identify the chosen entry by its label.
P
(P: 31.3 µM, Q: 16.8 µM)
